test system: CCRF-CEM leukemia; experiment: NCI tumour cell line growth inhibition, 48 h
Test readout: TGI

| Molecule | TGI |
| --- | --- |
| Cc1cc(O)c(C=O)c2c1C(=O)Oc1c(CO)c(O)c3c(c1O2)C(O)OC3=O (centres undefined) | > 100 µM |
| O=[N+]([O-])c1ccccc1S(=O)(=O)c1cc(O)cc2c1NCCC2 | 5.6 µM |
| CCc1ccc(CNCC(O)c2ccccc2)cc1 (centres undefined) | > 100 µM |
| CC12CCC(C(Br)(Br)C1=O)C2(C)C (centres undefined) | 0.196 µM |
| O=C(Nc1cccc(-n2cc(-c3ccncc3)c(-c3ccc(Cl)c(O)c3)n2)c1)Nc1ccc(Cl)c(C(F)(F)F)c1 | 2.7 µM |

Input line: May I ask what TGI has been recorded for Cc1cc(O)c(C(=O)O)c2c1C(=O)c1c(O)c(OCC(O)C(O)C(O)C(O)CO)c(O)c(O)c1C2=O (centres undefined) (tested in a mixture with another compound) ?
Output line: > 100 µM

Input line: May I ask what TGI has been recorded for O=C1C2c3[nH]c4ccccc4c3C3CCCC3C2C(=O)N1c1ccccc1 (centres undefined) ?
Output line: > 100 µM

Input line: May I ask what TGI has been recorded for Cc1cc2ncn(C3CCCO3)c2cc1C (centres undefined) ?
Output line: > 100 µM

Input line: May I ask what TGI has been recorded for COc1ccc2[nH]c(S(=O)(=O)N3CC(CCl)c4ccc(N)cc43)cc2c1 (centres undefined) ?
Output line: > 50.7 µM

Input line: May I ask what TGI has been recorded for CCN(CC)C(=O)C[n+]1c2ccccc2n2cc(N)ccc21 ?
Output line: > 100 µM

Input line: May I ask what TGI has been recorded for CN1CCN([C@H]2C[C@H]3[C@@H]4CC=C5C[C@@H](N6CCCC6)CC[C@]5(C)[C@H]4CC[C@]3(C)[C@H]2O)CC1 ?
Output line: > 100 µM

Input line: May I ask what TGI has been recorded for N#C/C(=C\c1ccccc1)c1nc(-c2cc3ccccc3oc2=O)cs1 ?
Output line: > 100 µM

---

system: HCT-15 colon; test: NCI tumour cell line growth inhibition, 48 h
TGI by entry:

Examples from the recorded data:
| Molecule | TGI |
| --- | --- |
| COc1cc(/C=C2\C(=O)N(c3cc(Cl)ccc3Cl)C(c3ccccc3)S2(=O)=O)cc(OC)c1OC (stereo not drawn) | > 100 µM |
| Cc1ccc([N+](=O)[O-])cc1S(=O)(=O)Nc1ccc(C(=O)/C=C/c2cccs2)cc1 | 64.3 µM |

# input for lookup
Input line: May I ask what TGI has been recorded for O=c1c2cc([N+](=O)[O-])ccc2[nH]n1Cc1ccccn1 ?
Output line: > 100 µM

---

TGI by entry:
test system: UACC-257 melanoma; test: NCI tumour cell line growth inhibition, 48 h
All answers are understood in µM, so give the number only.

Examples from the recorded data:
| Compound | TGI [µM] |
| --- | --- |
| FC(F)(F)c1nnn[n-]1.[Au+].c1ccc([PH+](c2ccccc2)c2ccccc2)cc1 | 7.43 |
| COc1cc2ncn(-c3cc(O[C@H](C)c4ccccc4Cl)c(C(N)=O)s3)c2cc1OC | 15.4 |
| CCN(CC)CCOc1ccc(N2C(=O)c3cccc4cc([N+](=O)[O-])cc(c34)C2=O)cc1 | 27 |
| COc1cc(NCCCCCN=C(N)N)c2ncccc2c1 | 16.7 |
| CCN(CC)Cc1cc(Nc2c3ccccc3nc3c4ccccc4n(C)c23)cc(CN(CC)CC)c1O | 7.07 |

Input line: May I ask what TGI has been recorded for Nc1nc2c(c3ncccc13)C(c1cccc(Br)c1)Cc1ncccc1-2 (stereo not drawn) ?
Output line: 54.7

Input line: May I ask what TGI has been recorded for COc1ccc(S(=O)(=O)N/N=C\c2cc([N+](=O)[O-])cc(I)c2O)c(OC)c1OC ?
Output line: 75.5

Input line: May I ask what TGI has been recorded for CCn1cc(C(=O)O)c(=O)c2cc(F)c(N3CCN(S(=O)(=O)c4ccc(Cl)cc4)CC3)cc21 ?
Output line: 5.5

Input line: May I ask what TGI has been recorded for CC(C)(C)OC(=O)C1C(=O)NC(=O)CC1CC(OCc1ccccc1)C(COCc1ccccc1)OCc1ccccc1 (stereo not drawn) ?
Output line: 53.4

Input line: May I ask what TGI has been recorded for O=C1/C(=C\c2ccccc2)C2/C(=C\c3ccccc3)C(=O)/C(=C\c3ccccc3)C2/C1=C\c1ccccc1 (stereo not drawn) ?
Output line: 4.2
